# MEASURED ON: P-gp (Homo sapiens, UniProt P08183)
# Sequence (P08183 whole entry): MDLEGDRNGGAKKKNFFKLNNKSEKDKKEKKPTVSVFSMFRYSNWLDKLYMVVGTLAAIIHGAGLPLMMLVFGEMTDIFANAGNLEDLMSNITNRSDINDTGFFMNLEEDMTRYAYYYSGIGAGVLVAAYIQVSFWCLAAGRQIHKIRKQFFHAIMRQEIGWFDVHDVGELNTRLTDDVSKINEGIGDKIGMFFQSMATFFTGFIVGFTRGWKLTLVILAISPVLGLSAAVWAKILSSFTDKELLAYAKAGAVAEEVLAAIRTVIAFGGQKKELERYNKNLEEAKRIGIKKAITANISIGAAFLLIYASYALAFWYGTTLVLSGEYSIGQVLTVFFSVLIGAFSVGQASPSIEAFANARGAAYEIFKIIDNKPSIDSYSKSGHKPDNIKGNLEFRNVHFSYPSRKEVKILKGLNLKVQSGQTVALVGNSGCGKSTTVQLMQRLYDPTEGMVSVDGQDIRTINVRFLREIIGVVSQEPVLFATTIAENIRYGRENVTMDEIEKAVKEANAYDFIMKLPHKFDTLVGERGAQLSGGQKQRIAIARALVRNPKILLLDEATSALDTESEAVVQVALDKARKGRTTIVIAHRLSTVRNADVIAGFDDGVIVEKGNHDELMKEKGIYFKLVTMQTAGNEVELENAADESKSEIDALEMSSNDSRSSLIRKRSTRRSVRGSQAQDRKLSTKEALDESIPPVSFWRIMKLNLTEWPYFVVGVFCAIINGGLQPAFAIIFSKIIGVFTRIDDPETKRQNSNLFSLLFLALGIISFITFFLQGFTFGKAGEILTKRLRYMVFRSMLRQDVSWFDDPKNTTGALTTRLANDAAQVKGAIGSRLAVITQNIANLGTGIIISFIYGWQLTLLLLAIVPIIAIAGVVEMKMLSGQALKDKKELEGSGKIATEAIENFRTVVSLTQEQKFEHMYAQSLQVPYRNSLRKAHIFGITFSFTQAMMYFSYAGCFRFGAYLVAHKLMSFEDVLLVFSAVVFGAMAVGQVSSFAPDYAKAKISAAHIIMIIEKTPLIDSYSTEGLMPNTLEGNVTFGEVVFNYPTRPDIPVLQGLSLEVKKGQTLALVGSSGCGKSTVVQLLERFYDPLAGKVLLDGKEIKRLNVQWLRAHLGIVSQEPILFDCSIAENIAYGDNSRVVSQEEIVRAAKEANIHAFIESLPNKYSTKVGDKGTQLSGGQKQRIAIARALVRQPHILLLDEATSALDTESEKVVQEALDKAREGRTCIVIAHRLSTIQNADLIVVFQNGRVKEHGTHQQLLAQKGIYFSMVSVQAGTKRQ
# ASSAY DETAILS: Vesicular transport assay, P-gp (N-methyl-quinidine substrate)
RECORDED ENDPOINT: IC50 (µM)
Number only, in µM; omit the unit.

Data request: // returns reported IC50 for input "CC1=C(/C=C/C(C)=C/C=C/C(C)=C/C=C/C=C(C)/C=C/C=C(C)/C=C/C2=C(C)CCCC2(C)C)C(C)(C)CCC1"
Data returned: 3.2

----------
# MEASURED ON: MRP2 (Homo sapiens)
# Construct: made in house; host or cells: Spodoptera frugiperda Sf9 cells, crude membrane vesicles
# ASSAY DETAILS: Vesicular transport assay, MRP2 (CDCF substrate)
# Assay type: biochemical
# MEASUREMENT CONTEXT: CDCF 5 μM; membrane vesicles; n = 3; read-out: IC50 (95% CI), MRP2
RECORDED ENDPOINT: pIC50
Note on units: pIC50 is unitless, being -log10 of a concentration expressed in mol/L.

Data request: // returns reported pIC50 for input Cc1cc(C(C)(C)C)c(O)c(C(C)(C)C)c1 [butylated hydroxytoluene]
Data returned: 4.31

----------
# MEASURED ON: MRP2 (Homo sapiens, UniProt Q92887)
# Construct: made in house; host or cells: Spodoptera frugiperda Sf9 cells, crude membrane vesicles
# Sequence (Q92887 whole entry): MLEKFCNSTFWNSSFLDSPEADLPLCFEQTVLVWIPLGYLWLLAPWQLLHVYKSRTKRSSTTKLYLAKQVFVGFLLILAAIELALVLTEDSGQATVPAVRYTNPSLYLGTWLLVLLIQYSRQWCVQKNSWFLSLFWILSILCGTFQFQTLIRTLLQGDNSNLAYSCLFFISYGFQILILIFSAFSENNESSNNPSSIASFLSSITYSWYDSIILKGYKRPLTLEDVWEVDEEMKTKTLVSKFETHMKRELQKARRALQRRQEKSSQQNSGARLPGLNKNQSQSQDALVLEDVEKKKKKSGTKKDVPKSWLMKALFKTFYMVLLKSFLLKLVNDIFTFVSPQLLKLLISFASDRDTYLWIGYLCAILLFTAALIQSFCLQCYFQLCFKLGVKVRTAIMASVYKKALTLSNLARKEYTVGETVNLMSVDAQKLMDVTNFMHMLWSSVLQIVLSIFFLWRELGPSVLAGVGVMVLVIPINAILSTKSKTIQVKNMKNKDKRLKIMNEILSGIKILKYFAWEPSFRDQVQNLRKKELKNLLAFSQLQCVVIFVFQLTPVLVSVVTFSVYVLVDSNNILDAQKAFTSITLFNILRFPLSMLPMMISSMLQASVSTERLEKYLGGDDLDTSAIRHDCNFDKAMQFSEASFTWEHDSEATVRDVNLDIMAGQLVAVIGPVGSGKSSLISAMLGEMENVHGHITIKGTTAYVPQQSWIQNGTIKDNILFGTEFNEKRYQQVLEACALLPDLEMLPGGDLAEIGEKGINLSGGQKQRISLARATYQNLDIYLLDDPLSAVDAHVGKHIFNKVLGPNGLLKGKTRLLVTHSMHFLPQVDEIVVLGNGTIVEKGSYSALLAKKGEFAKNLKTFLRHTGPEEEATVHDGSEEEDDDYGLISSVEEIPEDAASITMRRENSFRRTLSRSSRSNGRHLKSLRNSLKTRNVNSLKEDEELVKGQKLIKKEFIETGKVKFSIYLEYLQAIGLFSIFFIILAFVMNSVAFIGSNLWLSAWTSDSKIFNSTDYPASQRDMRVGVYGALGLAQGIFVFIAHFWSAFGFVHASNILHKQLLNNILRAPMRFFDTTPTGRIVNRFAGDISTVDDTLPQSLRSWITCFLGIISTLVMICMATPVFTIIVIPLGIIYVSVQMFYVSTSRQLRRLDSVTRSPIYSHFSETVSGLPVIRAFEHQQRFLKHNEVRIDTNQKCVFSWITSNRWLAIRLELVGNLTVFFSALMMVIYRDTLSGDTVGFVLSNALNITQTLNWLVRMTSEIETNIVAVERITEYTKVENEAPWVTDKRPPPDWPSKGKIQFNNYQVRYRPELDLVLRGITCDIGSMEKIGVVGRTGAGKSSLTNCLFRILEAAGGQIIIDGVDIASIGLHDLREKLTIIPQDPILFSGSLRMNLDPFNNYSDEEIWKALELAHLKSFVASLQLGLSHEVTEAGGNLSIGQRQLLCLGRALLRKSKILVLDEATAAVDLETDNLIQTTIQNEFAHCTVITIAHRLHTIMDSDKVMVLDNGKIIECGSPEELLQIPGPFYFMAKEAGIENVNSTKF
# ASSAY DETAILS: Vesicular transport assay, MRP2 (CDCF substrate)
# Type: biochemical
# MEASUREMENT CONTEXT: Sf9-derived crude membrane vesicles expressing MRP2, pH 7, probe CDCF 5 μM, food additive 50 μM, n = 1, read-out: inhibition of MRP2 substrate accumulation
RECORDED ENDPOINT: inhibition at 50 μM

Data request: Short answer please: inhibition at 50 μM, MRP2 (Homo sapiens, UniProt Q92887), entry Cc1cc(C(C)(C)C)c(O)c(C(C)(C)C)c1 [butylated hydroxytoluene]
Data returned: ≥ 50%

----------
Attribute: inhibition at 50 μM
# MEASURED ON: OATP2B1 (Homo sapiens, UniProt O94956)
# Construct: expressed in transfected cells; host or cells: HEK293 cells (ATCC) transduced with recombinant OATP2B1 baculovirus
# Sequence (O94956 whole entry): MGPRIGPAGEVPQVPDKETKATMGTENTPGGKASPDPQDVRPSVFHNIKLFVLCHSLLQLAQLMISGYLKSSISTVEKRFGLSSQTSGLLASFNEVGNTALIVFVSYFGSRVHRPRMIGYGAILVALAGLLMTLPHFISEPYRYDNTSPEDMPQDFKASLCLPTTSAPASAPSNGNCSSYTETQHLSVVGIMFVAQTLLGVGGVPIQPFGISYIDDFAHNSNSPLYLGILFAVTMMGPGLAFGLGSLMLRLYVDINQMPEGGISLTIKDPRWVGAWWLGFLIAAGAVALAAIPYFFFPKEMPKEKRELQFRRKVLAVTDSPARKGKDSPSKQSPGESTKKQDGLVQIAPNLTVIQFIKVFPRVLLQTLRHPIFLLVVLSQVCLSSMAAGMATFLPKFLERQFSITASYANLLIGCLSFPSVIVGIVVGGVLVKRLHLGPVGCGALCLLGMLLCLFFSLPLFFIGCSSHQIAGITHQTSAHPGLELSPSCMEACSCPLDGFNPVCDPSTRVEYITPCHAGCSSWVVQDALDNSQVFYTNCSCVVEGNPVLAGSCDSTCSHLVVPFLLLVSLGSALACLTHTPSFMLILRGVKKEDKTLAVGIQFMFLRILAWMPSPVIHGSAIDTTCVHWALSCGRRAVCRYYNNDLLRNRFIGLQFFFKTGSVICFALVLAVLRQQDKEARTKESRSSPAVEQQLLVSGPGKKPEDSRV
# ASSAY DETAILS: HEK293 uptake assay, OATP2B1 (5-carboxyfluorescein substrate)
# Assay type: cell-based
# MEASUREMENT CONTEXT: human, HEK293 cells transduced with recombinant OATP2B1 baculovirus, pH 6, probe 5-carboxyfluorescein 2 μM, food additive 50 μM, n = 1, read-out: inhibition of OATP2B1-mediated uptake

Data request: // returns reported inhibition at 50 μM for input "CC1=C(/C=C/C(C)=C/C=C/C(C)=C/C=C/C=C(C)/C=C/C=C(C)/C=C/C2=C(C)CCCC2(C)C)C(C)(C)CCC1"
Data returned: ≥ 50%

Data request: // returns reported inhibition at 50 μM for input CCCCCCCCOC(=O)c1cc(O)c(O)c(O)c1 [octyl gallate]
Data returned: ≥ 50%

----------
# ASSAY DETAILS: in vitro
# MEASUREMENT CONTEXT: human, Caco-2, pH 7.4
RECORDED ENDPOINT: efflux ratio at 120 min, 500 μM

Data request: // returns reported efflux ratio at 120 min, 500 μM for input O=C(O)c1cc(/N=N/c2ccc(S(=O)(=O)Nc3ccccn3)cc2)ccc1O [sulfasalazine, reference compound]
Data returned: > 70

The values you see were collected from paper PMC12406256.
